Target: T1, human Trop-2 expressed on cell surface (human, UniProt P09758 27-323)
T1 sequence (looked up): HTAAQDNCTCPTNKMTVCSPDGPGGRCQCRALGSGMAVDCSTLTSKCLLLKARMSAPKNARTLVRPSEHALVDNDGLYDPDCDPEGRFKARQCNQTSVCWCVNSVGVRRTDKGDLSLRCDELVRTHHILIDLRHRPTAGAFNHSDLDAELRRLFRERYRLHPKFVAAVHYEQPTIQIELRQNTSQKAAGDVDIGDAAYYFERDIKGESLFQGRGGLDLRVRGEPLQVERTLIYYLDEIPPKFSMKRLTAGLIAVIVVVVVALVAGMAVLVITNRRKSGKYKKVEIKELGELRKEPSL
Experiment: cell-based or functional assay
READOUT_LABEL: EC50 of ADCC (NFAT-CD16 reporter), MCF-7 (pM)
Provide the reading as a plain figure in pM.

INSERT INTO measurements (binder, unit_spec, quantitative_readout) VALUES
  ('62E3 (antibody, V domains shown, Rabbit-derived clone; LEM construct: VH + rabbit IgG CH1 + human IgG1 CH2-CH3) VH: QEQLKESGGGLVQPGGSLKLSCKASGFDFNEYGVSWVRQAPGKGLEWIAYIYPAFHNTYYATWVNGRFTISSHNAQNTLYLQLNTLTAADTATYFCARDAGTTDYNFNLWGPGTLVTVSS VL: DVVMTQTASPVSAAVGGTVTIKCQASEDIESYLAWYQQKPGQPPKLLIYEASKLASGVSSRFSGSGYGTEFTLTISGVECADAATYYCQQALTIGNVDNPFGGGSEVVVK', 'pM', 400);

Request: Would you kindly share the measured EC50 of ADCC (NFAT-CD16 reporter), MCF-7 for 5D4-2 (antibody, V domains shown) VH: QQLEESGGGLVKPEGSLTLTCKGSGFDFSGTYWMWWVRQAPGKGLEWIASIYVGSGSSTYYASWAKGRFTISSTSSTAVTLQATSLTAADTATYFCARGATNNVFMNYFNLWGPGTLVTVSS VL: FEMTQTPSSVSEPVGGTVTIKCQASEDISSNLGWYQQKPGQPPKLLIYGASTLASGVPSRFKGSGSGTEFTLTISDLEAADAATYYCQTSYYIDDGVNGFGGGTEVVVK ?
Response: 520
